Test system: Hepatitis C virus
Assay: Antiviral activity against Hepatitis C virus genotype 1a infected in human HuH7 cells after 5 days by ELISA
Assay type: functional, organism-based, Hepacivirus hominis
Settings: subtype 1a, Huh-7, 120 h
pEC50: −log10 of the molar value.
// label = Fulfilled if pEC50 is not less than 8, otherwise Not fulfilled

# Molecule, Group label
data = [
    ("CN(C)[C@@H](C(=O)N1CCC[C@H]1c1nc2cc(C#Cc3ccc4oc([C@@H]5CCCN5C(=O)[C@@H](c5ccccc5)N(C)C)nc4c3)ccc2o1)c1ccccc1", "Not fulfilled"),
    ("O=C(Cc1ccccc1)N1CCC[C@H]1c1nc2ccc(C#Cc3ccc4nc([C@@H]5CCCN5C(=O)Cc5ccccc5)oc4c3)cc2o1", "Not fulfilled"),
    ("CN(C)[C@@H](C(=O)N1CCC[C@H]1C(=O)Nc1cccc(-c2ncc(-c3ccc4nc([C@@H]5CCCN5C(=O)[C@@H](c5ccccc5)N(C)C)[nH]c4c3)o2)c1)c1ccccc1", "Fulfilled"),
    ("CN(C)[C@H](C(=O)N1CCC[C@H]1c1ncc(-c2ccc(-c3ccc(-c4cnc([C@@H]5CCCN5C(=O)[C@H](c5ccccc5)N(C)C)[nH]4)cc3)cc2)[nH]1)c1ccccc1", "Not fulfilled"),
    ("COC(=O)N[C@@H](C(=O)N1CCC[C@H]1c1nc2cc(C#Cc3ccc4[nH]c([C@@H]5CCCN5C(=O)[C@H](NC(=O)OC)c5ccccc5)nc4c3)ccc2[nH]1)c1ccccc1", "Not fulfilled"),
    ("CN(C)C(C(=O)N1CCC[C@H]1C(=O)Nc1ccc(-c2ncc(-c3ccc4[nH]c([C@@H]5CCCN5C(=O)[C@@H](c5ccccc5)N(C)C)nc4c3)o2)cc1)c1ccccc1 (single isomer, unassigned)", "Not fulfilled"),
    ("CN(C)[C@@H](C(=O)N1CCC[C@H]1c1nc2ccc(C#Cc3ccc4nc([C@@H]5CCCN5C(=O)[C@@H](c5ccccc5)N(C)C)oc4c3)cc2o1)c1ccccc1", "Not fulfilled"),
    ("COC(=O)N[C@@H](C(=O)N1CCC[C@H]1c1ncc(-c2ccc(-c3ccc(-c4cnc([C@@H]5CCCN5C(=O)[C@H](NC(=O)OC)c5ccccc5)[nH]4)cc3)cc2)[nH]1)c1ccccc1", "Fulfilled"),
    ("O=C(Cc1ccccc1)N1CCC[C@H]1c1nc2cc(C#Cc3ccc4oc([C@@H]5CCCN5C(=O)Cc5ccccc5)nc4c3)ccc2o1", "Not fulfilled"),
    ("COC(=O)N[C@@H](C(=O)N1CCC[C@H]1c1ncc(-c2ccc(-c3ccc(-c4cnc([C@@H]5CCCN5C(=O)[C@@H](c5ccccc5)N(C)C)[nH]4)cc3)cc2)[nH]1)c1ccccc1", "Fulfilled"),
    ("CN(C)[C@@H](C(=O)N1CCC[C@H]1c1ncc(-c2ccc(-c3ccc(-c4cnc([C@@H]5CCCN5C(=O)[C@@H](c5ccccc5)N(C)C)[nH]4)cc3)cc2)[nH]1)c1ccccc1", "Fulfilled"),
    ("CN(C)[C@@H](C(=O)N1CCC[C@H]1c1nc2cc(C#Cc3ccc4[nH]c([C@@H]5CCCN5C(=O)[C@@H](c5ccccc5)N(C)C)nc4c3)ccc2[nH]1)c1ccccc1", "Not fulfilled"),
    ("CN(C)[C@@H](C(=O)N1CCC[C@H]1c1nc2cc(-c3cnc(-c4ccc5[nH]c([C@@H]6CCCN6C(=O)[C@@H](c6ccccc6)N(C)C)nc5c4)o3)ccc2[nH]1)c1ccccc1", "Not fulfilled"),
]
